system: vancomycin-susceptible enterococci; test: broth micro-dilution, mean geometric MIC; assay type: cell-based, Enterococcus faecium and Enterococcus faecalis; conditions: enterococci, 24-hour incubation
measurement-kind: mean geometric MIC, Vancomycin Sensitive Strains (mg/L)

molecule="CNC(CC(C)C)C(=O)NC1C(=O)NC(CC(N)=O)C(=O)NC2C(=O)NC3C(=O)NC(C(=O)NC(C(=O)O)c4cc(O)cc(O)c4-c4cc3ccc4O)C(OC3CC(C)(N)C(O)C(C)O3)c3ccc(c(Cl)c3)Oc3cc2cc(c3OC2OC(CO)C(O)C(O)C2OC2CC(C)(NCc3ccc4c(c3)CCCC4)C(O)C(C)O2)Oc2ccc(cc2Cl)C1O (stereo not drawn)" recorded_value=0.10
molecule="CNC(CC(C)C)C(=O)NC1C(=O)NC(CC(N)=O)C(=O)NC2C(=O)NC3C(=O)NC(C(=O)NC(C(=O)O)c4cc(O)cc(O)c4-c4cc3ccc4O)C(OC3CC(C)(N)C(O)C(C)O3)c3ccc(c(Cl)c3)Oc3cc2cc(c3OC2OC(CO)C(O)C(O)C2OC2CC(C)(NCc3cccc(OC(=O)c4ccccc4)c3)C(O)C(C)O2)Oc2ccc(cc2Cl)C1O (stereo not drawn)" recorded_value=0.12
molecule="CNC(CC(C)C)C(=O)NC1C(=O)NC(CC(N)=O)C(=O)NC2C(=O)NC3C(=O)NC(C(=O)NC(C(=O)O)c4cc(O)cc(O)c4-c4cc3ccc4O)C(OC3CC(C)(N)C(O)C(C)O3)c3ccc(c(Cl)c3)Oc3cc2cc(c3OC2OC(CO)C(O)C(O)C2OC2CC(C)(NCc3cc(-c4ccccc4)ccc3O)C(O)C(C)O2)Oc2ccc(cc2Cl)C1O (stereo not drawn)" recorded_value=0.11

Reference source for all entries: patent US5840684A
